Reference source for all entries: patent US20150315188A1

- SYSTEM_UNDER_TEST: Human adrenergic α2A receptor (Homo sapiens)
- Sequence (P08913 1-465): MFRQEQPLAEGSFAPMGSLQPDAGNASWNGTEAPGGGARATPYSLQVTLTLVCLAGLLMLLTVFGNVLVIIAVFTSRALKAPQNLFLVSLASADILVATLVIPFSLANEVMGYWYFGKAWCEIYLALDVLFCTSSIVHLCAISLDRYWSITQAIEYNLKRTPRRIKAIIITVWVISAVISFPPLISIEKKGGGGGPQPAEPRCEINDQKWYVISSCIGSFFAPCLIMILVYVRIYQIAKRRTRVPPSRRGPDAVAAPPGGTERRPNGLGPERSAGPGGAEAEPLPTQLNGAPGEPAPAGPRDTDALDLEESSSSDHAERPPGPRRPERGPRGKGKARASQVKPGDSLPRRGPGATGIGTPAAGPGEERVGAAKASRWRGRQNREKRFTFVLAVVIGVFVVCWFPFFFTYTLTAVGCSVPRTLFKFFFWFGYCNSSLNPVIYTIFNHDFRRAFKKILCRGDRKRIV
- ASSAY_OVERVIEW: β-Arrestin GPCR functional assay, adrenergic α2A (Protocol B)
- ASSAY_CONTEXT: β-arrestin, antagonist vs nor-epinephrine EC80
Each entry below carries its recorded log10 of IC50.
MEASUREMENT_TYPE: log10 of IC50 (log10 of the value in nM)

| COMPOUND | SYSTEM_UNDER_TEST | log10 of IC50 |
| --- | --- | --- |
| Cc1ccc2c(c1)c1c(n2CC(OCC2CCC2)c2ccncc2)CCN2CCCC12 (single isomer, unassigned) [138a] | Human adrenergic α2A receptor (Homo sapiens) | 2.62 |
| Cc1ccc2c(c1)c1c(n2CC(C)(O)c2ccncc2)CCN2CCCC12 (single isomer, unassigned) [13b] | Human adrenergic α2A receptor (Homo sapiens) | 2.91 |
| Cc1ccc2c(c1)c1c(n2CC(C)(O)c2ccncc2)CCN2CCCC12 (single isomer, unassigned) [13a] | Human adrenergic α2A receptor (Homo sapiens) | 3.35 |
| CCCOC(Cn1c2c(c3cc(C)ccc31)CN(C)CC2)c1ccncc1 (single isomer, unassigned) [42b] | Human adrenergic α2A receptor (Homo sapiens) | 3.72 |
| Cc1ccc2c(c1F)c1c(n2CC(C)(O)c2cccnc2)CCN2CCCC12 (single isomer, unassigned) [87c] | Human adrenergic α2A receptor (Homo sapiens) | 2.90 |
| CC(O)(Cn1c2c(c3cc(F)ccc31)C1CCCN1CC2)c1ccncc1 (single isomer, unassigned) [31a] | Human adrenergic α2A receptor (Homo sapiens) | 4.06 |
| Cc1cc(F)cc2c3c(n(CC(O)c4ccncc4)c12)CCN1CCCC31 (single isomer, unassigned) [136a] | Human adrenergic α2A receptor (Homo sapiens) | 2.95 |
| Cc1cc(F)c2c(c1)c1c(n2CC(C)(O)c2ccncc2)CCN2CCCC12 (single isomer, unassigned) [81b] | Human adrenergic α2A receptor (Homo sapiens) | 3.22 |
| Cc1cc(C)c2c(c1)c1c(n2CC(C)(O)c2ccncc2)CCN2CCCC12 (single isomer, unassigned) [19a] | Human adrenergic α2A receptor (Homo sapiens) | 3.10 |
| OC(Cn1c2c(c3cc(Cl)cc(F)c31)C1CCCN1CC2)c1ccncc1 (single isomer, unassigned) [135a] | Human adrenergic α2A receptor (Homo sapiens) | 3.64 |
| Cc1cc2c3c(n(CC(C)(O)c4ccncc4)c2cc1Cl)CCN1CCCC31 (single isomer, unassigned) [50a] | Human adrenergic α2A receptor (Homo sapiens) | 2.85 |
| Cc1ccc2c(c1)c1c(n2CC(OCC2CCC2)c2ccncc2)CCN2CCCC12 (single isomer, unassigned) [138b] | Human adrenergic α2A receptor (Homo sapiens) | 3.12 |
| CCOC(Cn1c2c(c3cc(C)ccc31)CN(C)CC2)c1ccncc1 (single isomer, unassigned) [43a] | Human adrenergic α2A receptor (Homo sapiens) | 3.55 |
| Cc1ccc2c(c1)c1c(n2CC(O)c2ccncc2F)CCN2CCCC12 (single isomer, unassigned) [14b] | Human adrenergic α2A receptor (Homo sapiens) | 2.63 |
| Cc1cc(F)c2c(c1)c1c(n2CC(O)c2ccncc2)CCN2CCCC12 (single isomer, unassigned) [137a] | Human adrenergic α2A receptor (Homo sapiens) | 3.71 |

----------
- SYSTEM_UNDER_TEST: Human adrenergic α1B receptor (Homo sapiens)
- Sequence (P35368 whole entry): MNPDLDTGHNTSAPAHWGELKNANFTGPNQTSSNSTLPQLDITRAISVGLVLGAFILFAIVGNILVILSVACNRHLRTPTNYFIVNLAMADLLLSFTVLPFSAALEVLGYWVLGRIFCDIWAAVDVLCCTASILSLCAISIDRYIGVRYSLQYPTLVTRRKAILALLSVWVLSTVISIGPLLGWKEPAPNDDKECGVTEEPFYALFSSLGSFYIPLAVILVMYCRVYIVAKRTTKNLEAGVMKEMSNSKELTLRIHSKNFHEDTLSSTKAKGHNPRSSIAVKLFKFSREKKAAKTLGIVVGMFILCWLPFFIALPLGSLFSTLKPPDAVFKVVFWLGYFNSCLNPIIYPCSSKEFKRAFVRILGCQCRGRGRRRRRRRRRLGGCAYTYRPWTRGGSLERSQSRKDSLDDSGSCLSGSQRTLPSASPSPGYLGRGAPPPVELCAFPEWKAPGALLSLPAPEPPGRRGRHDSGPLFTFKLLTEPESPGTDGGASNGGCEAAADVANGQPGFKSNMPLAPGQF
- ASSAY_OVERVIEW: Radioligand binding, adrenergic α1B (Protocol Group B)
- Set-up: purchased Milipore (Millipore)
- ASSAY_CONTEXT: 0.3 μM compound; Protocol Group B; 0.3 µM
MEASUREMENT_TYPE: Percentage inhibition of ligand binding, Adrenergic α1B (0.3 μM) (%)

| MOLECULE | MEASUREMENT |
| --- | --- |
| Cc1ccc2c(c1)c1c(n2CC(C)(O)c2cncc(F)c2)CCN(C)C1 (single isomer, unassigned) [46b] | 10 |
| Cc1ccc2c(c1)c1c(n2CC(C)(O)c2cccnc2)CC2CCCN2C1 (stereo not drawn) [41d] | −1 |
| Cc1ccc2c(c1)c1c(n2CC(OCC2CCC2)c2ccncc2)CCN2CCCC12 (single isomer, unassigned) [138b] | 80 |
| Cc1ccc2c(c1)c1c(n2CC(C)(O)c2ccncc2)CC2CCCN2C1 (single isomer, unassigned) [37d] | 14 |
| Cc1ccc2c(c1)c1c(n2CC(C)(O)c2cccnc2)CC2CCCN2C1 (stereo not drawn) [41a] | −3 |
| Cc1cc(F)cc2c3c(n(CC(C)(O)c4cccnc4)c12)CC1CCCN1C3 (single isomer, unassigned) [76a] | 11 |
| Cc1ccc2c(c1)c1c(n2CC(C)(O)c2cccnc2)CC2CCCN2C1 (stereo not drawn) [41c] | −5 |
| Cc1cc(Cl)c2c(c1)c1c(n2CC(C)(O)c2ccncc2)CCN2CCCC12 (single isomer, unassigned) [91c] | −7 |
| CC(O)(Cn1c2c(c3cc(Cl)cc(F)c31)C1CCCN1CC2)c1ccncc1 (single isomer, unassigned) [52d] | 27 |
| Cc1ccc2c(c1)c1c(n2CC(O)c2ccccn2)CC2CCCN2C1 (single isomer, unassigned) [45c] | 3 |
| Cc1cc(F)cc2c3c(n(CC(C)(O)c4cccnc4)c12)CC1CCCN1C3 (single isomer, unassigned) [76c] | 33 |
| Cc1cc(F)cc2c3c(n(CC(C)(O)c4ccncc4)c12)CCN1CCCC31 (single isomer, unassigned) [77a] | 32 |
| Cc1ccc2c(c1)c1c(n2CC(C)(O)c2ccncc2)CC2CCCN2C1 (single isomer, unassigned) [37a] | 34 |
| CC(O)(Cn1c2c(c3cc(Cl)cc(F)c31)CN1CCCC1C2)c1cccnc1 (single isomer, unassigned) [63d] | −4 |
| CC(O)(Cn1c2c(c3cc(C(F)(F)F)ccc31)C1CCCN1CC2)c1cccnc1 (single isomer, unassigned) [64b] | 27 |
| Cc1ccc2c(c1)c1c(n2CC(C)(O)c2ccc(N(C)C)nc2)CCN(C)C1 (single isomer, unassigned) [39a] | 36 |
| Cc1cc(C)c2c(c1)c1c(n2CC(C)(O)c2ccncc2)CCN2CCCC12 (single isomer, unassigned) [19b] | 85 |
| Cc1ccc2c(c1)c1c(n2CC(C)(O)c2cccnc2)CC2CCCN2C1 (stereo not drawn) [38d] | 12 |
| CC(O)(Cn1c2c(c3cc(Cl)cc(F)c31)CN1CCCC1C2)c1ccncc1 (single isomer, unassigned) [86d] | 13 |
| Cc1cc(Cl)c2c(c1)c1c(n2CC(C)(O)c2ccncc2)CCN2CCCC12 (single isomer, unassigned) [91b] | 68 |
| Cc1cc(C)c2c(c1)c1c(n2CC(C)(O)c2cccnc2)CCN2CCCC12 (single isomer, unassigned) [44d] | 0 |
| CC(O)(Cn1c2c(c3cc(Cl)cc(F)c31)CN1CCCC1C2)c1cccnc1 (single isomer, unassigned) [63a] | 24 |
| Cc1cc(C)c2c(c1)c1c(n2CC(C)(O)c2cccnc2)CCN2CCCC12 (single isomer, unassigned) [44c] | 4 |
| CC(O)(Cn1c2c(c3cc(Cl)cc(F)c31)CN1CCCC1C2)c1ccncc1 (single isomer, unassigned) [86b] | 15 |
| CC(O)(Cn1c2c(c3cc(F)cc(Cl)c31)C1CCCN1CC2)c1cccnc1 (single isomer, unassigned) [89b] | 9 |
| OC(Cn1c2c(c3cc(Cl)cc(F)c31)C1CCCN1CC2)c1ccncc1 (single isomer, unassigned) [135d] | 9 |
| Cc1ccc2c(c1)c1c(n2CC(C)(O)c2cccnc2)CC2CCCN2C1 (stereo not drawn) [41b] | −4 |
| CC(O)(Cn1c2c(c3cc(F)ccc31)C1CCCN1CC2)c1ccncc1 (single isomer, unassigned) [31b] | 50 |
| Cc1ccc2c(c1)c1c(n2CC(OC(N)=O)c2ccncc2)CCN(C)C1 (single isomer, unassigned) | 22 |
| Cc1cc(F)cc2c3c(n(CC(C)(O)c4cccnc4)c12)CCN1CCCC31 (single isomer, unassigned) [75a] | 12 |
